- Target Or System: KRAS G12V (Homo sapiens, UniProt P01116, G12V)
- Sequence (P01116 with tags, fused parts or gaps isoform P01116-2 G12V): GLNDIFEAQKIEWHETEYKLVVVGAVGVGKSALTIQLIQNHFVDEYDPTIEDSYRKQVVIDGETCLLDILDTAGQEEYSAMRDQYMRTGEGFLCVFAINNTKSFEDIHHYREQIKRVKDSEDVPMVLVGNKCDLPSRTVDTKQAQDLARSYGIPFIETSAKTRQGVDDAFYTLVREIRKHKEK
- Experiment Description: SOS-catalyzed nucleotide exchange assay, KRAS G12V (Procedure A)
- Format: biochemical
- Experimental Setup: GNE
pIC50: −log10 of the molar value.
Observable: pIC50

Cc1cc2[nH]ncc2c(-c2nccc3c2sc2nc(OC[C@H]4C[C@H](S(C)(=N)=O)C4)nc(N4C[C@H]5CC[C@@H](C4)N5)c23)c1C(F)(F)F (some centres unmarked)
< 4.95
C#Cc1c(F)ccc2cc3[nH]ncc3c(-c3nccc4c3sc3nc(OC[C@@]56CCCN5C[C@@H](F)C6)nc(N5CC6CCC(C5)N6)c34)c12
6.43
Cc1cc2[nH]ncc2c(-c2nccc3c2sc2nc(OCC4(C)CNC(=O)C4)nc(N4C[C@H]5CC[C@@H](C4)N5)c23)c1C(F)(F)F (some centres unmarked)
< 4.95
Cc1cc2[nH]ncc2c(-c2nncc3c2sc2nc(OC[C@@]45CCCN4C[C@H](F)C5)nc(N4C[C@H]5CC[C@@H](C4)N5)c23)c1C(F)(F)F
5.64
Cc1cc2[nH]ncc2c(-c2nccc3c2sc2nc(OCC4(C#N)CCOCC4)nc(N4C[C@H]5CC[C@@H](C4)N5)c23)c1C(F)(F)F
< 4.95

Continue with the next compound.
Task: Provide measured pIC50 value, entry: Cc1cc2[nH]ncc2c(-c2nccc3c2sc2nc(OC[C@@]45CCCN4C[C@H](F)C5)nc(N4CCC5CCC(C4)N5)c23)c1C(F)(F)F (some centres unmarked)
Result: < 4.95

====

- Target Or System: KRAS G12D (Homo sapiens, UniProt P01116, G12D)
- Sequence (P01116 with tags, fused parts or gaps isoform P01116-2 G12D): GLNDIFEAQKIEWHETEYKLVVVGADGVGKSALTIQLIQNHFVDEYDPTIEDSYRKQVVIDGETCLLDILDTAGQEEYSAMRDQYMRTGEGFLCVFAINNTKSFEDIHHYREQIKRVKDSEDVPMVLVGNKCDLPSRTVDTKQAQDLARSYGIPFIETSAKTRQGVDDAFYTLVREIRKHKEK
- Experiment Description: SOS-catalyzed nucleotide exchange assay, KRAS G12D (Procedure A)
- Assay type: biochemical
- Experimental Setup: guanine nucleotide exchange (GNE)
Measured log10 of IC50 by item
In plain terms, each number is the log10 of measured IC50 in nM.

FC(F)c1c(Cl)cc2[nH]ncc2c1-c1nccc2c1sc1nc(OC[C@@]34CCCN3C[C@H](F)C4)nc(N3C[C@H]4CC[C@@H](C3)N4)c12
1.14
C#Cc1c(F)ccc2cc3[nH]ncc3c(-c3nccc4c3sc3nc(OCC5(C(F)(F)F)CCOCC5)nc(N5C[C@H]6CC[C@@H](C5)N6)c34)c12
3.31

Continue with the next molecule.
Task: // output log10 of IC50; input Cc1cc2[nH]ncc2c(-c2nccc3c2sc2nc(OCC4CCS(=O)(=O)C4)nc(N4C[C@H]5CC[C@@H](C4)N5)c23)c1C(F)(F)F (stereo partly drawn) ; system KRAS G12D (Homo sapiens, UniProt P01116, G12D)
Result: 3.41

====

- Target Or System: KRAS WT (Homo sapiens)
- Sequence (P01116 with tags, fused parts or gaps isoform P01116-2): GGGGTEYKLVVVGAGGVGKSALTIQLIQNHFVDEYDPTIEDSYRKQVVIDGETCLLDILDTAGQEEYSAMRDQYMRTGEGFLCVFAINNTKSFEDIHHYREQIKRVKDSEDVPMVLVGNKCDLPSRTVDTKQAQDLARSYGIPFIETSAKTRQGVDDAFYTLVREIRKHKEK
- Experiment Description: SOS-catalyzed nucleotide exchange assay, KRAS WT (Procedure A)
- Type: biochemical
- Experimental Setup: GNE
- Procedure: Procedure for SOS-Catalyzed Nucleotide Exchange Assay for KRAS-WT, G12C/D/V, G13D, HRAS, and NRAS (Procedure A) Recombinant KRAS-G12C protein used in this assay has an additional triple mutation (C51S/C80L/C118S). […] The time-resolved fluorescence resonance energy transfer (TR-FRET) signal is measured on an Envision (PerkinElmer) plate reader: Excitation filter=340 nm; emission1=495 nm; emission2=520 nm; dichroic mirror=D400/D505; delay time=100 ms. […]
Binary call on IC50 with cut-off 0.9 µM: strictly below means criterion met, and equality or higher means criterion not met.

Look over these answered cases.
Cc1cc2[nH]ncc2c(-c2nccc3c2sc2nc(OC[C@@]45CCCN4C[C@H](F)C5)nc(N4CCC5CCC(C4)N5)c23)c1C(F)(F)F (some centres unmarked) [Ex-72]
criterion not met
COC1(COc2nc(N3C[C@H]4CC[C@@H](C3)N4)c3c(n2)sc2c(-c4c(C(F)(F)F)c(C)cc5[nH]ncc45)nccc23)CC1 [Ex-26]
criterion not met
C#Cc1cccc2cccc(-c3nccc4c3sc3nc(OC[C@@]56CCCN5C[C@H](F)C6)nc(N5C[C@H]6CC[C@@H](C5)N6)c34)c12 [Ex-10]
criterion not met
Cc1cc2[nH]ncc2c(-c2nccc3c2sc2nc(OCC4CCS(=O)(=O)C4)nc(N4C[C@H]5CC[C@@H](C4)N5)c23)c1C(F)(F)F (some centres unmarked) [Ex-30]
criterion not met
Cc1cc2[nH]ncc2c(-c2nccc3c2sc2nc(OC[C@@]45CCCN4C[C@H](F)C5)nc(N4C[C@H]5CC[C@@](C)(C4)N5)c23)c1C(F)(F)F [Ex-76]
criterion not met

Okay, now this compound:
Task: hey, is IC50 for C#Cc1c(F)ccc2cc3[nH]ncc3c(-c3nccc4c3sc3nc(OC[C@]5(CN(C)C)CC5(F)F)nc(N5C[C@H]6CC[C@@H](C5)N6)c34)c12 [Ex-96] lower than 0.9 µM or not?
Result: criterion met
